Here the recorded melting point is given for each entry.

Here are 2 compounds together with their reported answers.
INSERT INTO assay_data (compound, property_measured, result) VALUES
  ('O=C(O)CCc1cc2cc(Cl)ccc2n1S(=O)(=O)c1ccc(-c2ccccc2)cc1', 'melting point', '160 to 162 °C'),
  ('CCOC(=O)c1cc(=O)cc(-c2ccc(O)cc2)o1', 'melting point', '213 to 215 °C');

In: Need melting point of CCCCNC(=O)C(Cc1ccccc1)NC(=O)c1cc2cc(Cl)ccc2[nH]1 (stereo not given) , thanks.
Out: 192 to 193 °C

In: Need melting point of `CCCOc1ccccc1-c1nc2cc3ncn(CC4CCCCC4)c3cc2c(=O)[nH]1` , thanks.
Out: 223 to 226 °C

In: Need melting point of `CCCn1nc2c(N)nc3ccccc3c2c1CC(C)C` , thanks.
Out: 199 to 200 °C

In: Need melting point of `O=c1cc(C(F)(F)F)cnn1-c1cc(Oc2ncccn2)c(Cl)cc1F` , thanks.
Out: 156 to 160 °C

In: Need melting point of CCOC(=O)C1CCC2(c3cc(OC)c(OC)cc3CCN2C(=O)CCN(C)C)C(C2c3cc(OC)c(OC)cc3CCN2CC)C1 (stereo not given) , thanks.
Out: 154 to 156 °C

In: Need melting point of CC(NS(=O)(=O)c1cc(C(=O)Cl)ccc1Cl)c1ccccc1 (stereo not given) , thanks.
Out: 112 °C

In: Need melting point of `O=C(c1ccccc1)c1cc2c(s1)SCCc1cc(=O)n(-c3ccc(Cl)cc3)nc1-2` , thanks.
Out: 180 to 182 °C

In: Need melting point of `COC(=O)c1c(Cn2cncn2)nc2cc(OC)c(OC)cc2c1-c1ccc(OC)c(OC)c1` , thanks.
Out: 218 to 220 °C

In: Need melting point of `O[C@@H]([C@H](O)[C@@H](COc1ccccc1)OCc1ccccc1)[C@@H](COc1ccccc1)OCc1ccccc1` , thanks.
Out: 80 °C

In: Need melting point of `COc1cc(C=CC(=O)c2c(OCC=C(C)C)ccc3c(=O)c4ccccc4oc23)cc(OC)c1OC` , thanks.
Out: 153 to 155 °C

In: Need melting point of CNC(=O)N(O)C(C)c1ccc(F)cc1 (stereo not given) , thanks.
Out: 130 to 133 °C

In: Need melting point of CC1=CCC2(C)C(CCC3C4CCC(=O)C4(C)CCC32)C1 (stereo not given) , thanks.
Out: 124 to 126 °C

In: Need melting point of O=C(O)Cn1ccn(C2CCc3ccccc3C2)c1=S (stereo not given) , thanks.
Out: 228 to 230 °C

In: Need melting point of CCOC(=O)C(C)(Sc1cc2ccccc2[nH]1)c1ccccc1 (stereo not given) , thanks.
Out: 97 to 99 °C

* * *

Property Measured: melting point

Here are 4 compounds together with their reported answers.
INSERT INTO measurements (compound, property_measured, result) VALUES
  ('Cc1[nH]c(C=O)c(C)c1CCO', 'melting point', '125 to 127 °C'),
  ('O=c1[nH]c2sc3ccc(Cl)cc3c2[nH]c1=O', 'melting point', '> 340 °C'),
  ('CSC(=N)Nc1ccc(Cl)c(Cl)c1', 'melting point', '166 °C'),
  ('O=C1N(c2cc(Cl)cc(Cl)c2)C(=O)[C@]2(Cc3ccc(Br)cc3)C[C@@H](O)CN12', 'melting point', '88.3 °C');

In: Need melting point of N#CCCC(C#N)CSc1ccc2ccccc2c1 (stereo unspecified) , thanks.
Out: 52 to 55 °C

In: Need melting point of `CC(C)NC(=O)N1CC(Oc2ccc(C(F)(F)F)cc2)C1` , thanks.
Out: 151 to 152 °C

In: Need melting point of `CN1C(=O)N(c2cc(Cl)cc(Cl)c2)C(=O)[C@]12CNC[C@H]2c1ccc(C#N)cc1` , thanks.
Out: 175 to 177 °C

In: Need melting point of `COC(=O)c1cc2c(I)cccc2cn1` , thanks.
Out: 165 to 167 °C

In: Need melting point of `O=C1c2ccccc2C(=O)N1OCCCN1CCOCC1` , thanks.
Out: 98 °C

In: Need melting point of `c1ccc(-c2cnc3cc4ccccc4cc3n2)cc1` , thanks.
Out: 163 °C

In: Need melting point of `CC(C)(C)OC(=O)NN(Cc1ccccc1)C[C@H](O)[C@H](Cc1ccccc1)NC(=O)OCc1ccccc1` , thanks.
Out: 142 to 143 °C
